Data origin, for the record: patent US7999011B2

assay: Systemic hemodynamics during infarct experiment; type: in vivo, rabbit; details: Reperfusion 3 h
PROPERTY MEASURED: MAP (mmHg)
// units = mmHg; emit number, no label

The recorded MAP for entry FC(F)OC(F)C(F)(F)F (stereo not shown) [DES, desflurane] equals 54

The recorded MAP for entry FC(F)OC(Cl)C(F)(F)F (stereo not shown) [ISO, isoflurane] equals 58

The recorded MAP for entry FC(F)OC(F)(F)C(F)Cl (stereo not shown) [ENF, enflurane] equals 75

The recorded MAP for entry FCOC(C(F)(F)F)C(F)(F)F [SEVO, sevoflurane] equals 65

---

experiment: End-tidal gas analysis; assay type: in vivo, rabbit; details: Reperfusion 3 h
PROPERTY MEASURED: EtCO2 (mmHg)
// units = mmHg; emit number, no label

The recorded EtCO2 for entry FCOC(C(F)(F)F)C(F)(F)F [SEVO, sevoflurane] equals 34

The recorded EtCO2 for entry FC(F)OC(Cl)C(F)(F)F (stereo not shown) [ISO, isoflurane] equals 30

The recorded EtCO2 for entry FC(F)OC(F)C(F)(F)F (stereo not shown) [DES, desflurane] equals 29

The recorded EtCO2 for entry FC(F)OC(F)(F)C(F)Cl (stereo not shown) [ENF, enflurane] equals 35

---

experiment: End-tidal gas analysis; format: in vivo, rabbit; conditions: end-tidal; Memory
PROPERTY MEASURED: EtHalogenated (%)
// units = %; emit number, no label

Completed entries (count: 3):
>>> recorded_value("FCOC(C(F)(F)F)C(F)(F)F")
0.07
>>> recorded_value("FC(F)OC(F)C(F)(F)F (stereo not shown)")
0.03
>>> recorded_value("FC(F)OC(F)(F)C(F)Cl (stereo not shown)")
0.02

Shifting focus to the compound that follows.
The recorded EtHalogenated for entry FC(F)OC(Cl)C(F)(F)F (stereo not shown) equals 0.02

---

assay: Arterial blood gas analysis; type: in vivo, rabbit; settings: arterial blood; Reperfusion 1 h
PROPERTY MEASURED: pH
API note: the answer field is a bare number with no unit suffix.

Completed entries (count: 3):
>>> recorded_value("FC(F)OC(F)(F)C(F)Cl (stereo not shown)")
7.38
>>> recorded_value("FC(F)OC(F)C(F)(F)F (stereo not shown)")
7.37
>>> recorded_value("FCOC(C(F)(F)F)C(F)(F)F")
7.39

Shifting focus to the molecule that follows.
The recorded pH for entry FC(F)OC(Cl)C(F)(F)F (stereo not shown) equals 7.39

---

assay: Systemic hemodynamics during infarct experiment; assay type: in vivo, rabbit; details: Reperfusion 1 h
Parameter RPP: see the listing below.

Completed entries (count: 3):
>>> recorded_value("FC(F)OC(F)C(F)(F)F (stereo not shown)")
"12.4 ± 0.4 bpm × mmHg × 10^3"
>>> recorded_value("FCOC(C(F)(F)F)C(F)(F)F")
"15.2 ± 1.3 bpm × mmHg × 10^3"
>>> recorded_value("FC(F)OC(F)(F)C(F)Cl (stereo not shown)")
"15.8 ± 1.5 bpm × mmHg × 10^3"

Shifting focus to the compound that follows.
The recorded RPP for entry FC(F)OC(Cl)C(F)(F)F (stereo not shown) equals 13.3 ± 0.8 bpm × mmHg × 10^3

---

test: Systemic hemodynamics during infarct experiment; assay type: in vivo, rabbit; settings: i.v. emulsion 10 ml/h for 30 min; Baseline
PROPERTY MEASURED: HR (bpm)
// units = bpm; emit number, no label

>>> recorded_value("FCOC(C(F)(F)F)C(F)(F)F [SEVO, sevoflurane]")
227
>>> recorded_value("FC(F)OC(F)C(F)(F)F (stereo not shown) [DES, desflurane]")
261
>>> recorded_value("FC(F)OC(F)(F)C(F)Cl (stereo not shown) [ENF, enflurane]")
248

Shifting focus to the compound that follows.
The recorded HR for entry FC(F)OC(Cl)C(F)(F)F (stereo not shown) [ISO, isoflurane] equals 240
